Experimental Target: T1, recombinant human CD63 second extracellular domain (Ala 103-Val 203) fused with a polyhistidine tag at the … (human, UniProt P08962 103-203)
T1 construct: range 103-203; Bought from Creative BioMart; also called human His-tagged CD63; soluble CD63
T1 sequence (looked up): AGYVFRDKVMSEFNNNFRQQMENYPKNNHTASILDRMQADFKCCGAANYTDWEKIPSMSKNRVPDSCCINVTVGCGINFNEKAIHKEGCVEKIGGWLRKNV
Protocol Summary: BLI (Octet HTX), IgG on anti-human Fc sensors, His-tagged CD63 as analyte, 30 C
Result Type: kon (M⁻¹ s⁻¹)
Report the value in M⁻¹ s⁻¹ with no unit label.

IgG1-CD63 affinity variant Y46 (antibody, V domains shown, As m1 with one histidine substitution) VH: EVQLQQSGPELVKPGASVKMSCKASGHTFTSYVMHWVRQTPGQGLEWIGYITPYNDGTKYNEKFKGKATLTSDKSSSTAYMELSSLTSEDSAVYYCVGGDNYYYAMDYWGQGTSVTVSA VL: NIMVTQSPSSLAVSAGEKVTMSCKSSQSVLYSSNQKNYLAWYQQKPGQSPKLLIYWASTRVSGVPDRFTGSGSGTDFTLTISRVQAEDLAVYYCHQYFSSFTFGSGTKLEIKR	200000
IgG1-CD63 affinity variant T71H (antibody, V domains shown) VH: EVQLQQSGPELVKPGASVKMSCKASGYTFTSYVMHWVRQTPGQGLEWIGYIHPYNDGTKYNEKFKGKATLTSDKSSSTAYMELSSLTSEDSAVYYCVGGDNYYYAMDYWGQGTSVTVSA VL: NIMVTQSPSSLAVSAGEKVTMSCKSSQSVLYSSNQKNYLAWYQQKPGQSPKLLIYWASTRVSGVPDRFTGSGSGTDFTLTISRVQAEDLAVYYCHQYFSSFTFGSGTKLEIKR	150000
IgG1-CD63 affinity variant G76H (antibody, V domains shown, As m1 with one histidine substitution) VH: EVQLQQSGPELVKPGASVKMSCKASGYTFTSYVMHWVRQTPGQGLEWIGYITPYNDHTKYNEKFKGKATLTSDKSSSTAYMELSSLTSEDSAVYYCVGGDNYYYAMDYWGQGTSVTVSA VL: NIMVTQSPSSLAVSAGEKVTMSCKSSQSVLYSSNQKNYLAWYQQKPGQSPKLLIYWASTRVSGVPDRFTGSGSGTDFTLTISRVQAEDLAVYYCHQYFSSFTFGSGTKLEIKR	22000
IgG1-CD63 affinity variant LS52 (antibody, V domains shown, As m1 with one histidine substitution in the light chain) VH: EVQLQQSGPELVKPGASVKMSCKASGYTFTSYVMHWVRQTPGQGLEWIGYITPYNDGTKYNEKFKGKATLTSDKSSSTAYMELSSLTSEDSAVYYCVGGDNYYYAMDYWGQGTSVTVSA VL: NIMVTQSPSSLAVSAGEKVTMSCKSSQSVLYHSNQKNYLAWYQQKPGQSPKLLIYWASTRVSGVPDRFTGSGSGTDFTLTISRVQAEDLAVYYCHQYFSSFTFGSGTKLEIKR	170000

Next binder, kon to be filled in.
Give kon for the following binder: IgG1-CD63 affinity variant LY51H (antibody, V domains shown, As m1 with one histidine substitution in the light chain) VH: EVQLQQSGPELVKPGASVKMSCKASGYTFTSYVMHWVRQTPGQGLEWIGYITPYNDGTKYNEKFKGKATLTSDKSSSTAYMELSSLTSEDSAVYYCVGGDNYYYAMDYWGQGTSVTVSA VL: NIMVTQSPSSLAVSAGEKVTMSCKSSQSVLHSSNQKNYLAWYQQKPGQSPKLLIYWASTRVSGVPDRFTGSGSGTDFTLTISRVQAEDLAVYYCHQYFSSFTFGSGTKLEIKR
98000
